Measured on: T1, monkey CEA expressed on CHO cell surface (cynomolgus monkey)
T1 construct: also called cynoCEA-CHO; monkey CEA proteins on the cell surface
T1 chain: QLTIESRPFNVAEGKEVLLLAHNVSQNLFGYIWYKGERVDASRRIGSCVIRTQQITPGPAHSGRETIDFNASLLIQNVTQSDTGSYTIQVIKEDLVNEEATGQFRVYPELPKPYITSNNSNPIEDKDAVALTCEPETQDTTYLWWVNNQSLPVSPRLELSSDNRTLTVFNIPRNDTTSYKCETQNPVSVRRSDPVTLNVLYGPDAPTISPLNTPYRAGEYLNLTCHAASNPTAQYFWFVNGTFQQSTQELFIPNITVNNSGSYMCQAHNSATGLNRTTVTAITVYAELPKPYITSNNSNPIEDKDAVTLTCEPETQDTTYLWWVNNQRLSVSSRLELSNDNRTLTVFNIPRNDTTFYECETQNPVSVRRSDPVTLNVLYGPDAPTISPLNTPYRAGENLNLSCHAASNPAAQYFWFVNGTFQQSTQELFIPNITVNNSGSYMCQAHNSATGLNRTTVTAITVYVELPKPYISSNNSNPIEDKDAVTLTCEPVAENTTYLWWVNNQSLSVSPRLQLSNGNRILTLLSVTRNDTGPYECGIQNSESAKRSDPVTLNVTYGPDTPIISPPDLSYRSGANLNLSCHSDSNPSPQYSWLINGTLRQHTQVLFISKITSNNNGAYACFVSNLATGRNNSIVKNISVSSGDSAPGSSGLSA
Protocol text: FACS, cynoCEA-CHO cells
Recorded metric: EC50 (nM)
Answer in nM, number only, no unit symbol.

stdin: Identify EC50 associated with the binder Hu63-3 (antibody, human IgG1, kappa, V domains shown) VH: EVQLVQSGAEVKKPGASVKVSCKASGYTFTDFYMNWVRQAPGQGLEWMGDIFPKNGNTDYNRKFKDRVTMTRDTSTSTVYMELSSLRSEDTAVYYCARSGYGNYVFDYWGQGTLVTVSS VL: DVQMTQSPSSLSASVGDRVTITCRTSQDINIYLNWYQQKPGGAVKLLIYYRSGLLSGVPSRFSGSGSGTDYTLTISSLQPEDFATYYCQQGNTLPPTFGGGTKVEIKR
stdout: 2.01

Below: the item to evaluate.
stdin: Identify EC50 associated with the binder Hu63-4 (antibody, human IgG1, kappa, V domains shown) VH: EVQLVQSGAEVKKPGASVKVSCKASGYTFTDFYMNWVRQAPGQGLEWMGDIFPKNGNTDYNRKFKDRVTLTVDKSTSTVYMELSSLRSEDTAVYYCARSGYGNYVFDYWGQGTLVTVSS VL: DIQMTQSPSSLSASVGDRVTITCRTSQDINIYLNWYQQKPGKAPKLLIYYRSGLLSGVPSRFSGSGSGTDFTLTISSLQPEDFATYYCQQGNTLPPTFGGGTKVEIKR
stdout: 1.95
